Data origin, for the record: PubChem BioAssay AID493114

Each entry below carries its recorded activation.
target_under_test: Caspase-3 (Homo sapiens) (UniProt P42574)
Sequence (P42574 whole entry D9A/D28A/D175A): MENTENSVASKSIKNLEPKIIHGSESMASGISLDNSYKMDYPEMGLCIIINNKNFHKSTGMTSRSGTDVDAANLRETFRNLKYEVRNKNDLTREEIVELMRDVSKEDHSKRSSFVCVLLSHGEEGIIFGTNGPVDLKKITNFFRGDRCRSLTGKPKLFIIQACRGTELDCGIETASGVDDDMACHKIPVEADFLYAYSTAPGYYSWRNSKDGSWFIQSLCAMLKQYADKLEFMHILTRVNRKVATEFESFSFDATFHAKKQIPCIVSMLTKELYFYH
test_method_notes: procaspase-3 activators, counter-screen for dual procaspase-3/7 activator project, biochemical, absorbance, PC-3 D3A mutant, human (AID 493114);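 note: 0% = DMSO wells and 100% = DMSO wells with 5 µM added PC-3 D3A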
conditions: recombinant PC-3 D3A, Ac-DEVD-pNA absorbance 405 nm; at 8.5 µM; stronger effect = higher value; 100% = enzyme control; aspartates 9, 28, 175 changed to alanine
The other results are listed elsewhere or left out. Active and inactive are the calls of the source.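 Rule for the calls: active = mean percent activation across triplicates above a set limit taken from the earlier primary procaspase-3 screen; inactive = the rest.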

{"smiles_representation": "CCOC(=O)C1(CCOC)CCN(Cc2cc3ccccc3s2)CC1", "activation": "2.49% (inactive)"}
{"smiles_representation": "COc1ccc(/C=N/Nc2nc3ccccc3c(=O)[nH]2)cc1", "activation": "0.42% (inactive)"}
{"smiles_representation": "COc1ccc(Nc2ncc(C(=O)N3CCN(c4ccccc4OC)CC3)c3ccccc23)cc1", "activation": "0.74% (inactive)"}
{"smiles_representation": "Nc1cccc2c1C(=O)N(Cc1nnc(-c3ccccc3Br)o1)C2=O", "activation": "-28.5% (inactive)"}
{"smiles_representation": "CC1(C)Cc2c(C#N)c(SCc3nc4ccccc4[nH]3)nc(N3CCOCC3)c2CO1", "activation": "-28.2% (inactive)"}
